The measurements presented in this section are drawn from PubChem BioAssay.

normalised cell number: recorded values
# Assay remarks: EMT-state selective cytotoxicity in co-culture – imaging, PC-3E GFP, TEM4-18 mCherry, primary screen (AID 1345086);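 further: cells exposed to compound for 72 h before imaging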
# Measurement setup: PC-3E GFP / TEM4-18 mCherry co-culture, imaging cell counts; measured here: epithelial PC-3E GFP cell survival; at 1 µM

{"columns": ["Compound", "normalised cell number"],
 "data": [
  ["NC(CS)C(=O)O (centres undefined)", 1],
  ["Nc1ccc(C(=O)NCC(=O)O)cc1", 1.03],
  ["CN1CCN(C2=Nc3ccccc3Oc3ccc(Cl)cc32)CC1", 1.1]
]}

Next up:
Form field normalised cell number, entry `Oc1ccc(Cl)c2cccnc12` : 1.27

----------
# System: F380Y/beta4
# Assay remarks: BK channel mutant inhibitors and activators – cell-based, U2OS BacMam, thallium flux, beta subunits, selectivity assay, profiling panel (AID 1259406);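 further: initial slope of Thallos dye fluorescence rise after thallium is added; log ratio against the mean of 0.3% DMSO vehicle wells on the same plate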
# Measurement setup: U2OS BacMam BK variants, at 30 µM
Calls of active or inactive are those of the source.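 The calls were made as follows: active = thallium flux through the channel raised or lowered by more than 3 SD from vehicle-only wells, actives on both sides; inactive = the rest.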
Respond using exactly one of the listed classes: label 1 (active), label 0 (inactive)

Please review the following examples before continuing.
{"columns": ["Molecule", "Tested on", "Assigned class"],
 "data": [
  ["CC1(C)O[C@@H]2C[C@H]3[C@@H]4C[C@H](F)C5=CC(=O)C=C[C@]5(C)[C@@]4(F)[C@@H](O)C[C@]3(C)[C@]2(C(=O)CO)O1", "F380Y/beta4", "label 1"],
  ["Cc1cccc(C)c1NC(=O)C(C)N (stereo not given)", "F380Y/beta4", "label 0"],
  ["CCOC(=O)c1ncn2c1CN(C)C(=O)c1cc(F)ccc1-2", "F380Y/beta4", "label 0"],
  ["C[C@]12C[C@H](O)[C@H]3[C@@H](CCC4=CC(=O)CC[C@@]43C)[C@@H]1CC[C@@H]2C(=O)CO", "F380Y/beta4", "label 0"],
  ["CN(C)CC[C@@H](c1ccc(Cl)cc1)c1ccccn1", "F380Y/beta4", "label 0"],
  ["COC(=O)C1=C(C)NC(C)=C(C(=O)OC(C)C)C1c1cccc2nonc12 (stereo not given)", "F380Y/beta4", "label 1"],
  ["COc1ccc(C2CNC(=O)C2)cc1OC1CCCC1 (stereo not given)", "F380Y/beta4", "label 1"],
  ["CC(=O)O[C@H]1C[C@@H]2CC[C@@H]3[C@H](CC[C@@]4(C)[C@H]3C[C@H]([N+]3(C)CCCCC3)[C@@H]4OC(C)=O)[C@@]2(C)C[C@@H]1N1CCCCC1", "F380Y/beta4", "label 0"],
  ["CCN(CC)CCNC(=O)c1cc(Cl)c(N)cc1OC", "F380Y/beta4", "label 0"],
  ["CCOC(=O)C1=C(C)NC(C)=C(C(=O)OC)C1c1cccc(Cl)c1Cl (stereo not given)", "F380Y/beta4", "label 1"]
]}

Qu. Record lookup: outcome of this test for `Cc1[nH]cnc1CN1CCc2c(c3ccccc3n2C)C1=O` ?
Ans. label 0

Qu. Record lookup: outcome of this test for `Nc1nc2c(ncn2COC(CO)CO)c(=O)[nH]1` ?
Ans. label 0

Qu. Record lookup: outcome of this test for `CNS(=O)(=O)Cc1ccc2[nH]cc(CCN(C)C)c2c1` ?
Ans. label 0

Qu. Record lookup: outcome of this test for `OCCOCCN1CCN(C2=Nc3ccccc3Sc3ccccc32)CC1` ?
Ans. label 1

Qu. Record lookup: outcome of this test for `CCOc1cc(CC(=O)N[C@@H](CC(C)C)c2ccccc2N2CCCCC2)ccc1C(=O)O` ?
Ans. label 1

Qu. Record lookup: outcome of this test for `O=C1CCc2ccc(OCCCCN3CCN(c4cccc(Cl)c4Cl)CC3)cc2N1` ?
Ans. label 0

Qu. Record lookup: outcome of this test for `Brc1c(NC2=NCCN2)ccc2nccnc12` ?
Ans. label 0

Qu. Record lookup: outcome of this test for `O=C1Nc2ccc(Cl)cc2[C@@](C#CC2CC2)(C(F)(F)F)O1` ?
Ans. label 0

Qu. Record lookup: outcome of this test for `COc1cc(C)c(Cc2cnc(N)nc2N)cc1OC` ?
Ans. label 0

Qu. Record lookup: outcome of this test for `O=C(c1ccc(F)cc1)C1CCN(CCn2c(=S)[nH]c3ccccc3c2=O)CC1` ?
Ans. label 0

Qu. Record lookup: outcome of this test for `CC(=O)Oc1ccccc1C(=O)Nc1ncc([N+](=O)[O-])s1` ?
Ans. label 0

Qu. Record lookup: outcome of this test for `CCN1CCN(c2cc3c(cc2F)c(=O)c(C(=O)O)cn3C2CC2)CC1` ?
Ans. label 0

Qu. Record lookup: outcome of this test for Cc1cccc(C)c1OCC(C)N (stereo not given) ?
Ans. label 0

Qu. Record lookup: outcome of this test for `O=c1[nH]cnc2c1ncn2[C@H]1CC[C@@H](CO)O1` ?
Ans. label 0

Qu. Record lookup: outcome of this test for `CC(C)(C(=O)c1cccnc1)c1cccnc1` ?
Ans. label 0

Qu. Record lookup: outcome of this test for `COc1ccc(CN2CCN(C(c3ccc(F)cc3)c3ccc(F)cc3)CC2)c(OC)c1OC` ?
Ans. label 0

Qu. Record lookup: outcome of this test for `CC(=O)Nc1ccc(CC(=O)O)cc1` ?
Ans. label 0

Qu. Record lookup: outcome of this test for `O=C(O)CCNC(=O)c1ccc(N=Nc2ccc(O)c(C(=O)O)c2)cc1` ?
Ans. label 0
